System: T. annulata-infected bovine cells
assay-notes: Resazurin-based drug susceptibility assay, 2-fold serial dilutions, 48 hours
Format: cell-based, Theileria annulata
run-parameters: 0.019 µM to 10 µM, read-out: IC50 against T. annulata-infected cells
pIC50 for assorted compounds
Give only the number. pIC50 is defined as minus log10 of concentration in molar units.

Solved cases (4 shown):
compound	pIC50
O=C(CCl)Nc1ccc(S(=O)(=O)c2ccc(NC(=O)CCl)cc2)cc1 [TCE-5003]	5.43
CC(/C=C/C(=O)NO)=C\[C@@H](C)C(=O)c1ccc(N(C)C)cc1 [Trichostatin A]	5.22
COC(=O)/C=C/C(=O)N(O)CCCCNCc1ccc(COC(=O)Nc2cccc3ccccc23)cc1 [Methylstat]	5.16
Cc1ccc(NC2=CC(=O)c3sc(C)nc3C2=O)cc1 [Ryuvidine]	5.66

Here is another compound to look at.
Input line: Item under review: CC1(C)C(=O)N=C2C1=C(O)C(=O)c1ccccc12 [BVT-948] . Reported pIC50?
Output line: 5.59
